ASSAY_SYSTEM: human recombinant Dipeptidyl peptidase IV enzyme (DPP-IV) (Homo sapiens)
Construct: purchased R&D Systems Inc. of Minneapolis, Minn
EXPERIMENT: in-vitro DPP-IV assay (cleavage of AMC from Gly-Pro-AMC)
Assay type: biochemical
CONDITION_DESCRIPTION: human recombinant DPP-IV, Gly-Pro-AMC substrate, 30° C., 30 minutes; read-out: DPP-IV inhibition using human recombinant DPP-IV enzyme, IC50
OBSERVED_PROPERTY: IC50 (nM)

Answered examples (5):
>>> print(df.to_string())
                                   compound  result_number
0  N#C[C@@H]1CCCN1C(=O)CN[C@@H]1C=C[C@H](Cn2cncn2)C1           68.3
1  N#C[C@@H]1C[C@H](F)CN1C(=O)CN[C@H]1CC[C@@H](Cn2nccn2)C1           10.6
2  N#C[C@@H]1CCCN1C(=O)CNC1CCC(C(=O)N2CCC[C@H]2C#N)C1 (mixture of isomers)            103
3  N#C[C@@H]1C[C@H](F)CN1C(=O)CN[C@@H]1CC[C@H](Cn2cncn2)C1 [Example-49]           3.22
4  CCCCc1nc(Cl)c(CO)n1CC1CCC(NCC(=O)N2CCC[C@H]2C#N)C1 (mixture of isomers)           10.1

I. CCCCc1nc(Cl)c(C#N)n1CC1CCC(NCC(=O)N2CCC[C@H]2C#N)C1 (mixture of isomers)
II. N#C[C@@H]1CCCN1C(=O)CNC1CCC(Cn2cncn2)C1 (mixture of isomers)
Between the entries labelled I and II , which has a larger IC50 value on record? Please indicate the selected item by its label. II
(II: 6 nM, I: 3.46 nM)

====

ASSAY_SYSTEM: human recombinant Dipeptidyl peptidase IV enzyme (DPP-IV) (Homo sapiens)
Construct: purchased R&D Systems Inc. of Minneapolis, Minn
EXPERIMENT: in-vitro DPP-IV assay (cleavage of AMC from Gly-Pro-AMC)
Type: biochemical
CONDITION_DESCRIPTION: human recombinant DPP-IV, Gly-Pro-AMC substrate, 30° C., 30 minutes; read-out: DPP-IV inhibition using human recombinant DPP-IV enzyme, IC50
OBSERVED_PROPERTY: IC50 (µM)

Below: 3 compounds and their reported IC50.
>>> df
                                   compound  observed_property  result_number
0  N#C[C@@H]1CCCN1C(=O)CNC1CCC(CN2CCC[C@H]2C(N)=O)C1 (mixture of isomers)               IC50         0.0644
1  N#C[C@@H]1CCCN1C(=O)CN[C@@H]1CC[C@H](CN2CCOCC2)C1               IC50         0.0201
2  N#C[C@@H]1C[C@H](F)CN1C(=O)CNC1CCC(Cn2cncn2)C1 (mixture of isomers)               IC50        0.00444

A. N#Cc1cccn1CC1CCC(NCC(=O)N2C[C@@H](F)C[C@H]2C#N)C1 (mixture of isomers)
B. Cc1ccc(C)n1C[C@H]1CC[C@@H](NCC(=O)N2C[C@@H](F)C[C@H]2C#N)C1
C. N#C[C@@H]1CCCN1C(=O)CN[C@@H]1CC[C@H](Cn2ccnc2)C1
D. N#C[C@@H]1CCCN1C(=O)CNC1CCC(CN2CCSC2)C1 (mixture of isomers)
E. N#CCC1CCC(NCC(=O)N2CCC[C@H]2C#N)C1 (mixture of isomers)
Put the compounds in ascending order of IC50. Form entry: labels listed in requested order. A, B, C, E, D
(A: 0.00344 µM, B: 0.0074 µM, C: 0.0112 µM, E: 0.0268 µM, D: 0.288 µM)

====

ASSAY_SYSTEM: human recombinant Dipeptidyl peptidase IV enzyme (DPP-IV) (Homo sapiens, UniProt P27487)
Sequence (P27487 whole entry): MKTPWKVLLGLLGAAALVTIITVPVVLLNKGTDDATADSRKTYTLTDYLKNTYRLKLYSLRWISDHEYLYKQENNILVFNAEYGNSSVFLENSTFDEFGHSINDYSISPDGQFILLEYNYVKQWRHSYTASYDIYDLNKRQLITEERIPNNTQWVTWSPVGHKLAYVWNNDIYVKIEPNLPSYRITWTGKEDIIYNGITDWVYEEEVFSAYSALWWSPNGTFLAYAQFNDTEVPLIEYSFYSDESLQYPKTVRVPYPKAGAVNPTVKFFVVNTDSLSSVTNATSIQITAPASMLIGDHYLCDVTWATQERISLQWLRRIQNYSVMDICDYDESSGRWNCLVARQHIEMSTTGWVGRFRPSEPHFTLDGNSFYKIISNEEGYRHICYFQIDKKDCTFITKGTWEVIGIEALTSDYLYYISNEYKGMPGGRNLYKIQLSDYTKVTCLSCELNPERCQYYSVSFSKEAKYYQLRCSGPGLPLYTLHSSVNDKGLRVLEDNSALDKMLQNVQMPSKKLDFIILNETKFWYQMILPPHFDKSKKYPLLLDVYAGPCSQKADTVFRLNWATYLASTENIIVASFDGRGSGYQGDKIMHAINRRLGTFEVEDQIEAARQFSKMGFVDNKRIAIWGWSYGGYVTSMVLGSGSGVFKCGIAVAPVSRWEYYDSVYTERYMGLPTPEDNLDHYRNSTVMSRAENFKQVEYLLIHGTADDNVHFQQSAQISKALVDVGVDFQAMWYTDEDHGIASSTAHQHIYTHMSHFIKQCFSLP
EXPERIMENT: in-vitro DPP-IV assay (cleavage of AMC from Gly-Pro-AMC)
CONDITION_DESCRIPTION: human recombinant DPP-IV, Gly-Pro-AMC substrate, 30° C., 30 minutes; read-out: DPP-IV inhibition using human recombinant DPP-IV enzyme, IC50
Procedure: DPP-IV activity was determined by the cleavage rate of 7-amino-4-methyl coumarin (AMC) from the synthetic substrate Glycyl-Prolyl-AMC. […] Fluorescence was measured using Fluorostar with an excitation filter of 380 nm and emission filter of 460 nm. […] Test compounds dissolved in DMSO at 5-6 concentrations were tested in duplicate along with the solvent control and blank samples. Percent inhibition was calculated at each concentration with respect to the solvent control sample (no test compound added). […]
Counter-ions that a name gives are not always drawn.
OBSERVED_PROPERTY: IC50 (nM)

>>> print(df.to_string())
                                   molecule  observed_property  result_number
0  N#C[C@@H]1CCCN1C(=O)CNC1CCC(C(=O)Nc2ccccc2-c2ccccc2)C1 (mixture of isomers)               IC50            252
1  N#C[C@@H]1CCCN1C(=O)CN[C@@H]1CC[C@H](Cn2cnnn2)C1 [Example-60, maleate]               IC50           4.12
2  N#C[C@@H]1C[C@H](F)CN1C(=O)CN[C@@H]1CC[C@H](Cn2cncn2)C1 [Example-42]               IC50           1.61

I. N#C[C@@H]1CCCN1C(=O)CN[C@@H]1CC[C@H](Cn2nc3ccccc3n2)C1
II. N#CC[C@H]1CC[C@@H](NCC(=O)N2C[C@@H](F)C[C@H]2C#N)C1
III. N#C[C@@H]1CCCN1C(=O)CN[C@@H]1CC[C@H](CNC(=O)Nc2ccccc2)C1
IV. N#C[C@@H]1CCCN1C(=O)CNC1CCC(C(N)=O)C1 (mixture of isomers)
Endpoint returns the given molecules ordered by ascending IC50. In plain terms: list the labels in the order you were asked to. II, I, III, IV
(II: 4.29 nM, I: 9.25 nM, III: 31.9 nM, IV: 163 nM)

====

ASSAY_SYSTEM: human recombinant Dipeptidyl peptidase IV enzyme (DPP-IV) (Homo sapiens, UniProt P27487)
EXPERIMENT: in-vitro DPP-IV assay (cleavage of AMC from Gly-Pro-AMC)
CONDITION_DESCRIPTION: human recombinant DPP-IV, Gly-Pro-AMC substrate, 30° C., 30 minutes; read-out: DPP-IV inhibition using human recombinant DPP-IV enzyme, IC50
pIC50: −log10 of the molar value.
OBSERVED_PROPERTY: pIC50

// solved cases for pIC50 follow
                                   molecule  result_number
0  N#C[C@@H]1CCCN1C(=O)CNC1CCC(Cn2cnc([N+](=O)[O-])c2)C1 (mixture of isomers)           8.16
1  N#Cc1ncn(C[C@H]2CC[C@@H](NCC(=O)N3CCC[C@H]3C#N)C2)c1C#N           8.03
2  N#C[C@@H]1CCCN1C(=O)CN[C@@H]1CC[C@H](CN2CCc3ccccc32)C1           7.66

I. N#C[C@@H]1CCCN1C(=O)CN[C@@H]1CC[C@H](CN2CCCS2(=O)=O)C1
II. N#CC[C@@H]1CC[C@H](NCC(=O)N2C[C@@H](F)C[C@H]2C#N)C1
III. N#C[C@@H]1CCCN1C(=O)CN[C@H]1CC[C@@H](Cn2cnnn2)C1
IV. CN1CCN(CC2CCC(NCC(=O)N3CCC[C@H]3C#N)C2)CC1 (mixture of isomers)
Sort the molecules on pIC50; start with the lowest figure. Use the labels to give the requested order. IV, I, III, II
(IV: 6.91, I: 7.53, III: 7.94, II: 8.36)

====

ASSAY_SYSTEM: human recombinant Dipeptidyl peptidase IV enzyme (DPP-IV) (Homo sapiens, UniProt P27487)
EXPERIMENT: in-vitro DPP-IV assay (cleavage of AMC from Gly-Pro-AMC)
CONDITION_DESCRIPTION: human recombinant DPP-IV, Gly-Pro-AMC substrate, 30° C., 30 minutes; read-out: DPP-IV inhibition using human recombinant DPP-IV enzyme, IC50
pIC50: −log10 of the molar value.
OBSERVED_PROPERTY: pIC50

P. COc1ccccc1C[C@H]1CC[C@@H](NCC(=O)N2C[C@@H](F)C[C@H]2C#N)C1 [Example-16]
Q. N#C[C@@H]1C[C@H](F)CN1C(=O)CN[C@@H]1CC[C@H](Cn2cncn2)C1 [Example-46, succinate]
R. N#C[C@@H]1CCCN1C(=O)CN[C@H]1CC[C@@H](Cn2cccn2)C1 [Example-28]
S. N#C[C@@H]1CCCN1C(=O)CN[C@H]1CC[C@@H](Cn2nccn2)C1 [Example-56]
Using measured pIC50, arrange the compounds from above in descending sequence. Would you mind listing the labels in the order requested? Q, P, R, S
